test system: NCI/ADR-RES ovarian; assay: NCI tumour cell line growth inhibition, 48 h
Measured metric: TGI (µM)
Give the value, in units of µM, as a plain number.

QUERY: Value lookup for TGI; key = CC(C)=CCC/C(C)=C/[C@H]1OC(=O)CC12C[C@H](O)C=CC2=O (stereo not given in full)
RESULT: 2.47

QUERY: Using the record for O[C@H](CN1CC1)[C@@H](O)CN1CC1 , report its TGI.
RESULT: 53.1

QUERY: Dear colleague, I am looking for the recorded TGI of the following compound: Cc1ccc2cnc(N)c(C#Cc3cncc(C(=O)Nc4ccc(CN5CCN(C)CC5)c(C(F)(F)F)c4)c3)c2c1
RESULT: 2.09

====

Give TGI for every item shown.
test system: SW-620 colon; assay: NCI tumour cell line growth inhibition, 48 h

QUERY: Report TGI for COc1cc(/C=C/c2cc(/C=C/c3ccc(O)c(OC)c3)[nH]c(=O)n2)ccc1O please.
RESULT: 16.6 µM

QUERY: If you can, please state the reported TGI value of CSc1ccccc1P(CCP(c1ccccc1SC)c1ccccc1SC)c1ccccc1SC .
RESULT: > 100 µM

QUERY: Which TGI value belongs to CN/N=C(\C(=O)Nc1ccc([N+](=O)[O-])cc1[N+](=O)[O-])C1NC(=O)NC1=O (stereo not drawn) ?
RESULT: > 100 µM

QUERY: # lookup: TGI of CC(C)(F)C[C@H](N[C@@H](c1ccc(-c2ccc(S(C)(=O)=O)cc2)cc1)C(F)(F)F)C(=O)NC1(C#N)CC1
RESULT: > 100 µM

QUERY: Would you mind telling me what TGI value was observed for O=C(NCCCCNCCCNC(=O)OCc1ccccc1)OCc1ccccc1 ?
RESULT: > 100 µM

QUERY: Looking for the measured TGI of C[n+]1c(-c2ccc(/C=N/Nc3ccnc(N/N=C/c4ccc(-c5cn6ccccc6[n+]5C)cc4)n3)cc2)cn2ccccc21 , can you help?
RESULT: > 100 µM

QUERY: Looking for the measured TGI of C(#Cc1ccccc1C#Cc1ccccn1)c1ccccn1 , can you help?
RESULT: 56.7 µM

QUERY: // returns reported TGI for input CC1=NN(C(=O)c2cc(Cl)cc([N+](=O)[O-])c2)C(=O)C1N=Nc1ccccc1C(=O)O (stereo not drawn)
RESULT: > 100 µM

QUERY: Requested read-out: TGI. Entry: O[C@H](CN1CC1)[C@@H](O)CN1CC1
RESULT: > 100 µM

QUERY: Could you tell me which TGI is on file for Cc1ccc2c(=O)c(C(=O)N(CCO)CCO)c[nH]c2n1 ?
RESULT: > 100 µM

QUERY: Given the compound O=C(O)c1oc2cccc3c2c1CCC3 , what is its reported TGI?
RESULT: > 100 µM

QUERY: Suppose we examine the compound CCOC(=O)CCC(C(=O)OCC)n1nnc2cc(Nc3c(C)[n+]([O-])c4ccc(Cl)cc4[n+]3[O-])ccc21 (stereo not drawn) ; what TGI value has been reported?
RESULT: > 100 µM

QUERY: What TGI value was documented for this compound, O=C1C2=C(c3ccccc31)C(c1ccc(F)cc1)N1C(=O)CCSC1=N2 (stereo not drawn) ?
RESULT: > 100 µM

QUERY: // lookup TGI for Cc1ccc(S(=O)(=O)N2CCN(CCO)CCN(S(=O)(=O)c3ccc(C)cc3)CCN(CCO)CC2)cc1
RESULT: > 100 µM

QUERY: Would you kindly share the measured TGI for O=S(=O)(/N=C1/SC(=Nc2ccccc2)N(c2ccccc2)/C1=N/S(=O)(=O)c1ccccc1)c1ccccc1 ?
RESULT: 44.2 µM

QUERY: I would be grateful if you could share the reported TGI for O=C1NC(O)CCN1C1CC(O)C(CO)O1 (stereo not drawn) .
RESULT: > 100 µM

QUERY: What does the record list as TGI for COc1ccc(NC(=S)NNC(=O)c2cc(-c3ccccc3)nc3ccccc23)cc1 ?
RESULT: 41.6 µM

QUERY: Value lookup for TGI; key = N#Cc1c(NCc2ccccc2)nc(NCc2ccccc2)c(C#N)c1-c1cccc(O)c1
RESULT: 68.2 µM

QUERY: Data request, read-out TGI, for O=C(Nc1ccccc1C(=O)Nc1nccs1)c1ccccc1
RESULT: > 100 µM

QUERY: For Cc1c(N)nc(C(CC(N)=O)NCC(N)C(N)=O)nc1C(=O)NC(C(=O)NC(C)C(O)C(C)C(=O)NC(C(=O)NCCc1nc(-c2nc(C(=O)NCCCNCCCCN)cs2)cs1)C(C)O)C(OC1OC(CO)C(O)C(O)C1OC1OC(CO)C(O)C(OC(N)=O)C1O)c1cnc[nH]1 (stereo not drawn) , what is its reported TGI?
RESULT: > 10 µM

QUERY: Look up TGI: Cc1ccc([N+](=O)[O-])cc1NC(=O)C(=O)C1CCC2=C(Sc3ccccc3N2)C1=O (stereo not drawn)
RESULT: > 100 µM

QUERY: // query TGI value for entry CCCCCCCCC[n+]1cccc(C2C(C(=O)OCC)=C(C)NC(C)=C2C(=O)OCC)c1
RESULT: 30.5 µM

QUERY: Recorded TGI for COc1ccc(N2C(=O)/C(=C/c3ccc(N(CCC#N)CCC#N)cc3)N=C2c2ccccc2)c(OC)c1 , please?
RESULT: > 100 µM

QUERY: Fill blank: measured TGI of the compound COc1cc(S(=O)(=O)N/N=C/c2cc(Br)c(O)c(OC)c2)c(OC)cc1NC(C)=O is ____.
RESULT: > 100 µM

QUERY: Please give the measured TGI for this compound: CC(C)(O)CCC(O)C(C)(O)C1CCC2(O)C3=CC(=O)C4(O)CC(O)C(O)CC4(C)C3CCC12C (stereo not drawn) (tested in a mixture with another compound)
RESULT: > 100 µM

QUERY: # query: TGI of entry NC(=S)N/N=C\c1nccc2c(C(F)(F)C(F)(F)C(F)(F)F)cccc12
RESULT: 24.3 µM

QUERY: Recorded TGI of CC1OC=CC(=O)C1O (stereo not drawn) , please.
RESULT: > 100 µM

QUERY: Quick check: TGI of COc1ccccc1N1C(=O)/C(=C\c2cccc(Oc3ccccc3)c2)S(=O)(=O)C1c1ccccc1 (stereo not drawn) ?
RESULT: > 100 µM

QUERY: Consider the compound COc1cc(-c2[o+]c3cc(O)cc(OC4OC(CO)C(O)C(O)C4O)c3cc2OC2OC(CO)C(O)C(O)C2O)cc(OC)c1O (stereo not drawn) and give its measured TGI.
RESULT: > 100 µM

QUERY: Any idea what TGI was measured for Cc1cc(Cl)ccc1NC(=O)NC(C)(C)COC(=O)Nc1cccc(Cl)c1 ?
RESULT: > 100 µM

QUERY: What value of TGI has been recorded for this entry: CNC(C)Cc1ccc(O)cc1 (stereo not drawn)
RESULT: > 100 µM

QUERY: Please give the measured TGI for this compound: Oc1ccc2ccccc2c1OCc1nnc(CCCCCCCCc2nnc(COc3c(O)ccc4ccccc34)o2)o1
RESULT: > 100 µM

QUERY: Fill in the blank: the reported TGI of O=C1OC(c2ccccc2)=N/C1=C/N1CCCC1C(=O)O (stereo not drawn) is ____.
RESULT: > 100 µM

QUERY: Quick one: TGI for N#Cc1c(-c2ccc(Cl)cc2)cc(-c2nc3ccccc3[nH]2)nc1N ?
RESULT: 42.6 µM

QUERY: Report TGI for COC(=O)C12C3C4C1C1C2C3C41C(=O)N(C(C)C)C(C)C (stereo not drawn) please.
RESULT: > 100 µM

QUERY: # lookup: TGI of COc1cc(CC2CC(c3ccc4c(c3)OCO4)OC2=O)cc(OC)c1OC (stereo not drawn)
RESULT: > 100 µM

QUERY: Please give the measured TGI for this compound: Cc1cccc(C(O)c2cccnc2)c1O (stereo not drawn)
RESULT: > 100 µM

QUERY: Please report the recorded TGI for O=C(Nc1cccc([N+](=O)[O-])c1)c1cc2ccccc2cc1O .
RESULT: 17 µM

====

test system: MALME-3M melanoma; experiment: NCI tumour cell line growth inhibition, 48 h
Measured metric: log10 TGI (log10 of the value in µM)
A difference of one corresponds to tenfold TGI; all values are log10 with TGI in µM.

QUERY: For the compound shown here, Cc1ccc(/C=C2\CN(Cc3cn(CCNc4ccnc5cc(Cl)ccc45)nn3)C/C(=C\c3ccc(C)cc3)C2=O)cc1 , give the reported log10 TGI.
RESULT: 0.54

QUERY: log10 TGI for O=C(O)c1cc2c(c3ccsc13)-c1ccccc1CC2 ?
RESULT: 1.78

QUERY: # input compound: COc1ccc(C2=NNC(=O)c3ccccc3N2c2nc(-c3cccs3)nc3ccc(Br)cc23)cc1 ; wanted: its log10 TGI
RESULT: 1.88

QUERY: Given the compound Cc1ccc2cnc(N)c(C#Cc3cncc(C(=O)Nc4ccc(CN5CCN(C)CC5)c(C(F)(F)F)c4)c3)c2c1 , what is its reported log10 TGI?
RESULT: -0.21

QUERY: What measured log10 TGI goes with C(#Cc1ccccc1C#Cc1ccccn1)c1ccccn1 ?
RESULT: 1.32

QUERY: Please report the recorded log10 TGI for O=S(=O)(/N=C1/SC(=Nc2ccccc2)N(c2ccccc2)/C1=N/S(=O)(=O)c1ccccc1)c1ccccc1 .
RESULT: 1.84

QUERY: Give the measured log10 TGI of Cc1nc2sc(C(=O)Nc3cccc(Cl)c3C)c(N)c2cc1C(C)O (stereo unspecified) .
RESULT: 1.57

QUERY: Return reported log10 TGI; argument: O=C(NC/C=C/Br)NC1CCNc2ccccc21 (stereo unspecified)
RESULT: 1.89

QUERY: If you can, please state the reported log10 TGI value of Cc1nnc2sc(-c3ccc([N+](=O)[O-])o3)nn12 .
RESULT: 1.16
